Origin of values: patent US20210087291A1

target: T1, cynomolgus FolR1 ECD-AcTev-Fcknob-Avi tag + Fc hole, biotinylated monomeric Fc fusion (cynomolgus, UniProt P0DOX5 223-449 = IgG part); assay: SPR ProteOn, Fab analyte;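 also: recombinant antigens immobilized, purified Fab two-fold dilutions injected in parallel channels, 200 s association and 600 s dissociation, buffer-only channel as in-line reference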
T1 construct: also called cyFolR1; cyno FolR1-Fc

{"Binder": "19A4 Fab (Fab, V domains shown) VH: QVQLVQSGAEVKKPGASVKVSCKASGYTFTSYYMHWVRQAPGQGLEWMGIINPSGGSTSYAQKFQGRVTMTRDTSTSTVYMELSSLRSEDTAVYYCARGGWIRWEHFDYWGQGTLVTVSS VL: QAVVTQEPSLTVSPGGTVTLTCGSSTGAVTTSNYANWVQEKPGQAFRGLIGGTNKRAPGTPARFSGSLLGGKAALTLSGAQPEDEAEYYCALWYSNLWVFGGGTKLTVL", "Display Unit": "nM", "Kd": 4250}
{"Binder": "15B6 Fab (Fab, V domains shown) VH: QVQLVQSGAEVKKPGASVKVSCKASGYTFTSYYMHWVRQAPGQGLEWMGIINPSGGSTSYAQKFQGRVTMTRDTSTSTVYMELSSLRSEDTAVYYCARNYYIGIVPFDYWGQGTLVTVSS VL: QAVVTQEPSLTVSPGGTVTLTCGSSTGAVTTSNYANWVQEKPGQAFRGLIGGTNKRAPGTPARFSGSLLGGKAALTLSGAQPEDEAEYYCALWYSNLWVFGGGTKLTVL", "Display Unit": "nM", "Kd": 13.9}
{"Binder": "21D1 Fab (Fab, V domains shown) VH: QVQLVQSGAEVKKPGASVKVSCKASGYTFTSYYMHWVRQAPGQGLEWMGIINPSGGSTSYAQKFQGRVTMTRDTSTSTVYMELSSLRSEDTAVYYCARNYYVGVSPFDYWGQGTLVTVSS VL: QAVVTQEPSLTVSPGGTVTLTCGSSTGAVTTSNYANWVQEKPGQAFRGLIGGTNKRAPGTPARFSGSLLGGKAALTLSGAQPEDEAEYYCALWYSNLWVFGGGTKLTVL", "Display Unit": "nM", "Kd": 32.1}
